# ASSAY TEXT: Growth inhibition of NCI60 cells after 48 hrs
# Format: functional
# STATED CONDITIONS: Homo sapiens, NCI60, 48 h
Catalogue of GI50 readings, one per entry.
Please format your answer as a value with the unit trailing.

Problem: I have this compound here, COc1cc(/C=C/c2cc(O)c(C/C=C(\C)CCC=C(C)C)c(O)c2)cc2c1O[C@]1(C)CC[C@@H](O)C(C)(C)[C@H]1C2 (single isomer, unassigned) [3-DEOXYSCHWEINFURTHIN B] , and I need its recorded GI50.
Solution: 870 nM

Problem: // query GI50 value for entry COc1cc(/C=C/c2cc(O)c(C/C=C(\C)CCC=C(C)C)c(O)c2)cc2c1O[C@@]1(C)CC[C@H](O)C(C)(C)[C@@H]1C2 (single isomer, unassigned)
Solution: 2200 nM
